Attribution: paper PMC11923837

System: human embryonic kidney (HEK293) cells
assay details: Cytotoxicity, resazurin reduction assay
Format: cell-based
No end group written: not given here.
MIC, Hk (Table 1S) values for the substances below.
result type: MIC, Hk (Table 1S)

substance: RWRWRWRWRWRWRWRW-NH2 [RW8]
result: > 32 mg/L

substance: RWRWPRWRWPRWRW-NH2 [RW6-2P]
result: > 32 mg/L

substance: RWRWRWRW-NH2 [RW4]
result: > 32 mg/L
